Test Target: T1, 4H3595-AA
T1 chain: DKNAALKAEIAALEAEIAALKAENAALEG
Protocol Description: two-hybrid library CCmax;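 note: natural log of median RNA to DNA barcode read ratio; higher means stronger binding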
Answer each item with its documented interaction score.

INPUT: For the binder DKNAALKAEIAALEAEIAALKAENAALEG [4H3595-AA] , give its reported interaction score.
OUTPUT: -0.866

INPUT: For the binder DENAALEAEIAALEAKIAALEAKNAALKG [4H1064-AA] , give its reported interaction score.
OUTPUT: 0.0501

INPUT: For the binder DKIAALKAKNAALEAENAALEAEIAALEG [4H2961-AA] , give its reported interaction score.
OUTPUT: -1.7

INPUT: For the binder DEIAALEAENAALKAKIAALKAEIAALEG [4H233-AA] , give its reported interaction score.
OUTPUT: 0.594
